Target: T1, human IL-36R extracellular domain expressed with a C-terminal mouse IgG2a Fc tag (hIL-36R-mFc) (human; mouse, UniProt Q9HB29 20-337)
T1 construct: not shown: mouse IgG2a Fc, E98-K330
T1 sequence (looked up): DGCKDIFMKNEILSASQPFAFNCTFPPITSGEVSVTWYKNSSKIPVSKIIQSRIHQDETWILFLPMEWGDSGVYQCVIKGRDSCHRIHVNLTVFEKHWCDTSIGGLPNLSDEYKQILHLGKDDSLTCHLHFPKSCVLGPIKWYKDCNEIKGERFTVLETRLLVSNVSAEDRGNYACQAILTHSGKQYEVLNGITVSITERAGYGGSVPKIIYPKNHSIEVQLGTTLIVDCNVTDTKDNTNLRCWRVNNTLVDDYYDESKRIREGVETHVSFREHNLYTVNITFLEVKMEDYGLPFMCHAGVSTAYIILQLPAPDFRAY
Assay: SPR Biacore 4000, mAb captured on anti-hFc, 25C
t1/2 by entry:
Supply the numeric figure in min, leaving out any unit text.

H4H14699P2 (antibody, human IgG4 S228P, kappa, V domains shown, Fully human anti-IL-36R antibody) VH: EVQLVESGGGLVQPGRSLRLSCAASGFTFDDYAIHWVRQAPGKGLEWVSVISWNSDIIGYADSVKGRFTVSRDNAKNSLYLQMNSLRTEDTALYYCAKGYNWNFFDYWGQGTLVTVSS VL: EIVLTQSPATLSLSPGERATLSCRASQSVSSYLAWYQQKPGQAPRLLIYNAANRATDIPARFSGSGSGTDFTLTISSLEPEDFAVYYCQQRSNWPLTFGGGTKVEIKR: 57

For the binder shown here, H4H14731P (antibody, human IgG4 S228P, kappa, V domains shown, Fully human anti-IL-36R antibody) VH: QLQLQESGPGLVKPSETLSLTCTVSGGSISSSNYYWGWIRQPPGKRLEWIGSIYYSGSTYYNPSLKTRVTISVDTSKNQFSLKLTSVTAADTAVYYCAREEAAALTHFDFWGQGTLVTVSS VL: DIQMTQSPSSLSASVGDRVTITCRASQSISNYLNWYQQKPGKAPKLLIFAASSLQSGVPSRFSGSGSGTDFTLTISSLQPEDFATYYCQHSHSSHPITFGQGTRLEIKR , give the reported t1/2.
36

The reported measurements were obtained from patent US20200017592A1.
